Data credit: patent US20120021972A1

# TARGET_DESC: human glucagon receptor (human, UniProt P47871 26-477)
# TEST_NAME: cell-based or functional assay
Starred links: 1 amine or outer side, 2 acyl side, 3 side chain; linkers in the order of their positions; H or OH if unused. Non-standard residues stand in square brackets, D forms with d. No end group written: not given here. ACPP = 2-amino-5-(3-chlorophenyl)pentanoic acid, O=C([C@H](CCCc1cccc(Cl)c1)N[*:1])[*:2]; Bip(2'-Et-4'-OMe) = CCc1cc(OC)ccc1-c1ccc(C[C@H](N)C(=O)O)cc1; Leu(5,5,5,5',5',5'-F6) = N[C@@H](CC(C(F)(F)F)C(F)(F)F)C(=O)O; Nva(5-(3,5-Me2Ph)) = Cc1cc(C)cc(CCC[C@H](N)C(=O)O)c1; 2F‑APPA = 2-amino-5-(2-fluorophenyl)pentanoic acid; αMePhe(2-F) = C[C@](N)(Cc1ccccc1F)C(=O)O; hhPhe = N[C@@H](CCCc1ccccc1)C(=O)O; aThr = C[C@H](O)[C@H](N)C(=O)O; Ac5c = NC1(C(=O)O)CCCC1; CNB = not defined here; Ac3c = NC1(C(=O)O)CC1; Aib = CC(C)(N)C(=O)O
# if value of inhibition of cAMP production, 10 nM reaches 2 pmol/ml/µg prt, tag TRUE; if it stays below, tag FALSE

See these solved cases before continuing.
H[Aib][CNB]GTFTSD[Bip(2'-Et-4'-OMe)][ACPP] (reading uncertain) [Seq. ID. No. 31: H-Aib-(CNB)-GTFTSD-Bip(OMe)-(ACPP)]    TRUE
H[Aib][CNB]G[aThr][αMePhe(2-F)][aThr]SD[Bip(2'-Et-4'-OMe)][2F‑APPA] (reading uncertain) [Seq. ID. No. 116: H-Aib-(CNB)-G-T(allo)-(α-Me-2F-Phe)-T(allo)-SD-Bip(OMe)-(2F-APPA)]    FALSE
H[Ac3c]QGTFTSD[Bip(2'-Et-4'-OMe)][Nva(5-(3,5-Me2Ph))] [Seq. ID. No. 22: H-(ACP)-QGTFTSD-Bip(OMe)-(ADMP)]    TRUE
H[Aib][Leu(5,5,5,5',5',5'-F6)]G[aThr][αMePhe(2-F)][aThr]SD[Bip(2'-Et-4'-OMe)][hhPhe] [Seq. ID. No. 228: H-Aib-(Hfl)-G-T(allo)-(α-Me-2F-Phe)-T(allo)-SD-Bip(OMe)-(APPA)]    TRUE
H[Ac5c]QGTFTSD[Bip(2'-Et-4'-OMe)][Nva(5-(3,5-Me2Ph))] [Seq. ID. No. 26: H-(APP)-QGTFTSD-Bip(OMe)-(ADMP)]    TRUE

In plain terms: is recorded inhibition of cAMP production, 10 nM at least 2 pmol/ml/µg prt for H[Aib][CNB]GT[αMePhe(2-F)][aThr]SD[Bip(2'-Et-4'-OMe)][2F‑APPA] (reading uncertain) [Seq. ID. No. 120: H-Aib-(CNB)-GT-(α-Me-2F-Phe)-T(allo)-SD-Bip(OMe)-(2F-APPA)] ?
FALSE

In plain terms: is recorded inhibition of cAMP production, 10 nM at least 2 pmol/ml/µg prt for H[Aib][CNB]GTFTSD[Bip(2'-Et-4'-OMe)][Nva(5-(3,5-Me2Ph))] (reading uncertain) [Seq. ID. No. 30: H-Aib-(CNB)-GTFTSD-Bip(OMe)-(ADMP)] ?
TRUE

In plain terms: is recorded inhibition of cAMP production, 10 nM at least 2 pmol/ml/µg prt for H[Aib]QGTFTSD[Bip(2'-Et-4'-OMe)][ACPP] [Seq. ID. No. 19: H-Aib-QGTFTSD-Bip(OMe)-(ACPP)] ?
FALSE
